TARGET_OR_TEST_SYSTEM: T1, Canine IL31 (canine)
T1 chain: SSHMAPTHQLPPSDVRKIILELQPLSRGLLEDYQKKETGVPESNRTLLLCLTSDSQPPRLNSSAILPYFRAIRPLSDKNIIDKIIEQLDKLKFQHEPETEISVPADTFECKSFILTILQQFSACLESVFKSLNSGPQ
ASSAY_DETAILS: SPR, BIAcore 8K, Protein A sensor chip
Parameter: kon. Scope: all listed entries.

BINDER: cmVH2 + cmVL3 chimeric antibody (antibody, human IgG1, V domains shown, also called analyte 4) VH: EVQLVESGPSLVKPGGSLRLTCSVTGDSITSGYWKWIRKFPGNKLEYMGYISYSGITDYNPSLKSRITISRDTSKNQYYLQLNSVTTEDTATYYCARYPNYGYAMDYWGQGTSVTVSS VL: DIVMTQSPASLSVSLGQRATISCRASESVDTYGRSFMHWYQQKPGQSPKLLIYRASNLESGIPARFGGSGSGTDFTLTIDPVQADDVATYYCHQSYEDPWTFGGGTKLEIK
kon / M⁻¹ s⁻¹: 186000
--
BINDER: cmVH3 + cmVL2 chimeric antibody (antibody, human IgG1, V domains shown, also called analyte 5) VH: EVQLVESGPSLVKPGGSLRLTCSVTGDSITSGYWKWIRKFPGNKLEYMGYISYSGITDYNPSLKSRITISRDTSKNQYYLQLNSVTTEDTATYYCARYANYGYAMDYWGQGTSVTVSS VL: DIVMTQSPASLSVSLGQRATISCRASESVDTYGRSFMHWYQQKPGQSPKLLIYRASNLESGIPARFGGSGSGTDFTLTIDPVQADDVATYYCYQSYEDPWTFGGGTKLEIK
kon / M⁻¹ s⁻¹: 187000
--
BINDER: Caninized VH-VL M14 chimeric antibody (caninized VH of M14 fused to human IgG1 heavy chain and caninized VL of M14 fused to human kappa constant light chain) (antibody, V domains shown, Chimeric: VH fused to human IgG1 heavy chain, VL fused to human kappa constant light chain; also called analyte 1; caninized VH-VL M14 antibody control) VH: EVQLVESGPSLVKPGGSLRLTCSVTGDSITSGYWNWIRKFPGNKLEYMGYISYSGITDYNPSLKSRITISRDTSKNQYYLQLNSVTTEDTATYYCARYGNYGYAMDYWGQGTSVTVSS VL: DIVMTQSPASLSVSLGQRATISCRASESVDTYGNSFMHWYQQKPGQSPKLLIYRASNLESGIPARFGGSGSGTDFTLTIDPVQADDVATYYCQQSYEDPWTFGGGTKLEIK
kon / M⁻¹ s⁻¹: 240000
